# Substrate: CCCC(=O)Oc1ccc([N+](=O)[O-])cc1
# measurementNotes: purified protein
# Type: biochemical, Sutcliffiella cohnii
# recordedConditions: 50 mM Tris-HCl pH 8.0, 20 °C

protein	kcat/Km
EstN7 (Sutcliffiella cohnii) (protein, recombinant, purified from E. coli BL21(DE3); dimer; catalytic triad S157, D254, H284) MKNRIDPELRAMLDMFPPLNLDDVQATRKAMEEAAQLTELPVDEEVVVSNRMVPGPEDNPYVRVRIYEPKEKIEKLPGLLWIHGGGYVLGAPEGDDLLCQRFVKEANCVVVSVDYRLAPEHPYPAPLEDCYAALQWFAKKVDELGVDASRIGVGGQSAGGGLTAALALLARDRKGPELCFQMPLYPMIDDKNNSPSSLEITGNLIWNHDLNEKGWSMYLDGKNGTDDVPVHAAPARATDLTNLPYTYTCVGQLDPFRDETLDYVKRLCQAGVDVEFHLYPGAYHGFETLNPAAAVSQRALAEYVGAVKHVLNREKVVERK	5610 M⁻¹ s⁻¹
